target: T1, AFP158/HLA-A*02:01 complex (human); experiment: SPR, crude scFv captured, pMHC analyte;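 further: complex injected at several concentrations over the chip, association phase then running buffer for dissociation, KD derived from on- and off-rates computed from both curves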
T1 construct: flowed as analyte in SPR
Consider the following binders; for each one, report its kon.
Respond with the bare value in M⁻¹ s⁻¹.

stdin: I have this binder here, AS170036 VL1VH1-56N98Q108A (scFv, also called 55-AS170036 VL1VH1-56N98Q108A) scFv: QSALTQPRSVSGSPGQSVTISCAGTSSDVGSENYVSWYQQHPGKAPKLMIYQVNKRASGVPDRFSGSKSGNTASLTISGLQAEDEADYYCASYRSSDQNIVFGGGTKLTVLGGGGSGGGGSGGGGSEVQLVESGGGLVQPGGSLRLSCAASGFTFSSYAMSWVRQAPGKGLEWVSTINSGTNSPYYADSVKGRFTISRDNSKNTLYLQMNSLRAEDTAVYYCAKNFFDGSWFLAPPAMDYWGQGTLVTVSSHHHHHH , and I need its recorded kon.
stdout: 240000

stdin: I have this binder here, AS170036 VL1VH1-57M98I108A (scFv, also called 79-AS170036 VL1VH1-57M98I108A) scFv: QSALTQPRSVSGSPGQSVTISCAGTSSDVGSENYVSWYQQHPGKAPKLMIYQVNKRASGVPDRFSGSKSGNTASLTISGLQAEDEADYYCASYRSSDINIVFGGGTKLTVLGGGGSGGGGSGGGGSEVQLVESGGGLVQPGGSLRLSCAASGFTFSSYAMSWVRQAPGKGLEWVSTINSGTGMPYYADSVKGRFTISRDNSKNTLYLQMNSLRAEDTAVYYCAKNFFDGSWFLAPPAMDYWGQGTLVTVSSHHHHHH , and I need its recorded kon.
stdout: 220000
